Assay: SAD/MAD study in pediatric patients hospitalized with RSV infection: plasma PK with PK modeling
Format: in vivo, human
Settings: human, plasma, doses of 40/20 mg/kg and 60/40 mg/kg compound (A), actual concentrations with PK modeling (FIG. 3), read-out: plasma AUC0-24
parameter: AUC(0-t)

Field AUC(0-t) (entry Nc1ccn([C@@H]2O[C@@](CO)(CCl)[C@@H](O)[C@H]2F)c(=O)n1 [compound (C)] ) reads 8000 to 20000 ng·h/mL

====

Assay: half-life of the triphosphate compound (B)
Details: triphosphate formed inside the cell
parameter: half-life

The compound listed as Nc1ccn([C@@H]2O[C@](CCl)(COP(=O)(O)OP(=O)(O)OP(=O)(O)O)[C@@H](O)[C@H]2F)c(=O)n1 shows half-life equal to ~17.6 h
